# system.under.test: human TASK-1 (Homo sapiens)
# Sequence (O14649 whole entry): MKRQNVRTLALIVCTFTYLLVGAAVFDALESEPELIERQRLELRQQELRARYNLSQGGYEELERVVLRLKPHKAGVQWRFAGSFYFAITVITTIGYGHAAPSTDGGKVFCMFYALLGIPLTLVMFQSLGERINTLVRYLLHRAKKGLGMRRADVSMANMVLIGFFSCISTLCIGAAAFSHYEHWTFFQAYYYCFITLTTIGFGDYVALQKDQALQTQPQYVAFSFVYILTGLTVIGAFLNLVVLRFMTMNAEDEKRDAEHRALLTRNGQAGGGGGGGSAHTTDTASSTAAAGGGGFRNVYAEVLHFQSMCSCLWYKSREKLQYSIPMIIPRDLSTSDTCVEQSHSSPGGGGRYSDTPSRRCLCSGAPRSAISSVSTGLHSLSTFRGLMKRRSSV
# assay.details: Inhibition of recombinant TASK-1 in stably transfected CHO cells, KCl-induced depolarization, voltage-sensitive dye (B-2)
# Type: cell-based
# Design: expressed in transfected cells; host or cells: stably transfected CHO cells
# measurement.context: depolarization induced by 40 mM potassium chloride, some mean values from multiple determinations
pIC50: −log10 of the molar value.
Bucketed by reported pIC50, buckets being c1 = under 6, c2 = from 6 up to 7, c3 = 7 and over

Prompt line: For COc1cccc(C(=O)N2CC3CCC(C2)N3Cc2c(-c3ccc(C(C)C)cc3)nc3ccccn23)n1 , which pIC50 bin applies?
Response line: c1

Prompt line: For O=C(C1CCCC1)N1CC2CCC(C1)N2Cc1c(-c2ccc(Br)cc2)nc2ccccn12 , which pIC50 bin applies?
Response line: c2

Prompt line: For Cc1ccccc1C(=O)N1C2CCC1CN(Cc1c(-c3ccc(Cl)cc3)nc3ccccn13)C2 , which pIC50 bin applies?
Response line: c2

Prompt line: For O=C(C1CCCCC1)N1CC2CCC(C1)N2Cc1c(-c2ccc(Cl)cc2)nc2ccccn12 , which pIC50 bin applies?
Response line: c1

Prompt line: For CCc1cccc(C)c1NC(=O)N1C2CCC1CN(Cc1c(-c3ccc(Cl)cc3)nc3ccccn13)C2 , which pIC50 bin applies?
Response line: c3

Prompt line: For O=C(OC1CCCCC1)N1C2CCC1CN(Cc1c(-c3ccc(Cl)cc3)nc3ccccn13)C2 , which pIC50 bin applies?
Response line: c1

Prompt line: For CC(C)c1ccc(-c2nc3ccccn3c2CN2CC3CCC2CN3C(=O)C2CCCC2)cc1 (single isomer, unassigned) [Example 62] , which pIC50 bin applies?
Response line: c1

Prompt line: For Cc1csc(C(=O)N2C3CCC2CN(Cc2c(-c4ccc(Cl)cc4)nc4ccccn24)C3)n1 , which pIC50 bin applies?
Response line: c3

Prompt line: For O=C(c1ccccc1F)N1CC2CCC1CN2Cc1c(-c2ccc(Cl)cc2)nc2ccccn12 (single isomer, unassigned) [Example 35] , which pIC50 bin applies?
Response line: c2

Prompt line: For COc1cccc(C(=O)N2C[C@@H]3CC[C@H]2CN3Cc2c(-c3ccc(Cl)cc3)nc3ccccn23)n1 (single isomer, unassigned; enantiomer 1) , which pIC50 bin applies?
Response line: c2

Prompt line: For O=C(c1cccc(OC(F)(F)F)n1)N1C2COCC1CN(Cc1c(-c3ccc(Cl)cc3)nc3ccccn13)C2 , which pIC50 bin applies?
Response line: c2
